- TARGET: Kallikrein-5 (Homo sapiens) (UniProt Q9Y337)
- Sequence (Q9Y337 67-293 limits assumed): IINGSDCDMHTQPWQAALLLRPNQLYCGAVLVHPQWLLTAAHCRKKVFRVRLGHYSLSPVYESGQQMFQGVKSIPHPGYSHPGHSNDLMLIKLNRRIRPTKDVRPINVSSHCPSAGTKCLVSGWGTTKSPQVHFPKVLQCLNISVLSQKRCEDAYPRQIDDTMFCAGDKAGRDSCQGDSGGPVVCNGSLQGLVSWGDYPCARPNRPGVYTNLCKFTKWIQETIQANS
- EXPERIMENT SUMMARY: inhibition of kallikrein 5 (hK5) activity – biochemical, 1536-well, primary screen (AID 873);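 note: 0% = enzyme controls without compound and 100% = no-enzyme blanks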
- TEST SETTINGS: recombinant hK5, fluorogenic AMC substrate cleavage; at 5 µM; stronger effect = higher value
Out of some 210,000 compounds screened, about 1,300 (0.62%) were called active. This excerpt belongs to a sample that is enriched for actives.
Answer each item with its documented inhibition.
Give bare numbers, in %.

Below: 3 molecules and their reported inhibition.
q: What value of inhibition has been reported for the following molecule? Cc1cc(C(=O)NCCc2ccc(Cl)cc2)n(-c2ccccc2)n1
a: 0.87

q: How about CCN(CC)S(=O)(=O)c1ccc(NC(=O)CN(c2cccc(F)c2)S(C)(=O)=O)cc1 ?
a: -2.67

q: How about C/C(Cc1ccccc1)=N\NC(=O)CNC(=O)c1ccc2c(c1)OCCO2 ?
a: -2.98

We now examine a further molecule.
q: What value of inhibition has been reported for the following molecule? O=c1c2c3c(sc2n(CCN2CCCC2)c(=O)n1Cc1ccccc1)CCCCC3
a: 8.67

###

- TARGET: Kallikrein-5 (Homo sapiens) (UniProt Q9Y337)
- EXPERIMENT SUMMARY: inhibition of kallikrein 5 (hK5) activity – biochemical, 1536-well, primary screen (AID 873);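 note: 0% = enzyme controls without compound and 100% = no-enzyme blanks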
- TEST SETTINGS: recombinant hK5, fluorogenic AMC substrate cleavage; at 5 µM; stronger effect = higher value
In all, about 210,000 compounds went through this assay and about 1,300 (0.62%) were called active. The full list was thinned out, with actives kept by preference.
PROPERTY LABEL: inhibition (%)
Give bare numbers, in %.

Below: 4 molecules and their reported inhibition.
q: What value of inhibition has been reported for the following molecule? COC(=O)C1=C(C)N=C2SC(C)C(=O)N2C1/C=C/c1ccccc1 (configuration not stated)
a: 61.9

q: How about CCC(=O)Nc1ccc(C(=O)Nc2cccc(OC)c2)cc1 ?
a: -2.36

q: How about COc1cc(C(=O)N2C(=O)c3cccc(N)c3C2=O)cc(OC)c1OC ?
a: -10.2

q: How about CSc1ccc(CN(C)CC(=O)NCc2ccc(F)cc2)cc1 ?
a: -2.79

For each entry beneath this line, provide reported inhibition.
1. COc1ccc(N2CCC(CNC(=S)Nc3c(C)cccc3C)C2)cc1 (configuration not stated)
2. C[C@@H](NC(=O)OC(C)(C)C)c1nnc(S(=O)(=O)Cc2ccccc2)o1
3. Cc1nc2cc(NC(=O)Nc3cccc(F)c3)ccc2n1C
4. O=C(O)C1CCCCC1C(=O)Nc1ccc(Cl)cc1 (configuration not stated)
5. CC12COC3(C(=O)Nc4ccc(Cl)cn4)CC1CCC32C (configuration not stated)
6. C=C1CCN([C@H](C(=O)NCc2cc(OC)c(OC)c(OC)c2)C(C)C)S(=O)(=O)c2ccccc21
7. Cc1cccc(NC(=O)/C(=C\c2ccco2)NC(=O)c2ccccc2)c1
8. NC(=O)Cc1ccc2c(c1)[nH]c1ccccc12

a:
-0.97
-1.93
17
2.31
-6.22
0.63
-17.2
49.5
